# TARGET_OR_TEST_SYSTEM: rabbit reticulocyte 15-LO (Oryctolagus cuniculus)
# Construct: Fifteen-lipoxygenase was obtained from phenylhydrazine-treated rabbits and purified per the method of Rapoport; from tissue; host or cells: reticulocytes of phenylhydrazine-treated rabbits
# PROTOCOL: Rabbit Reticulocyte 15-LO Assay (h15LO)
# Assay type: biochemical
# ASSAY_CONTEXT: Table 2; 2U rabbit reticulocyte 15-LO, 174 μM linoleic acid, 15 minutes at 4° C.
Labelling field: enter Fulfilled if recorded IC50 is less than 30 nM. Enter Not fulfilled if it equals or exceeds that cut-off.

COMPOUND	ANSWER_LABEL
O=C(Nc1ccccc1)c1cccc(NC(=S)Nc2cc(Cl)cc(Cl)c2)c1	Not fulfilled
COc1ccc(C(=O)Nc2ccc(F)c(F)c2)cc1Nc1cccc(C(F)(F)F)c1	Fulfilled
COc1ccc(C(=O)Nc2ccccc2)cc1NS(=O)(=O)c1cc(Cl)cc(Cl)c1 [Example 248]	Not fulfilled
O=C(Nc1ccc(F)c(NC(=S)Nc2cccc(C(F)(F)F)c2)c1)c1ccc(Cl)c(Cl)c1	Not fulfilled
CCCCCCCCS(=O)(=O)Nc1cc(C(=O)Nc2ccccc2)ccc1OC	Fulfilled
O=C(Nc1ccc(F)cc1)c1ccc(OC(F)(F)F)c(NC(=S)Nc2cc(Cl)cc(Cl)c2)c1	Not fulfilled
COc1ccc(C(=O)Nc2ccccc2)cc1Nc1cccc(Cl)c1	Fulfilled
COc1ccc(NC(=O)c2ccc(O)c(Nc3cc(Cl)cc(Cl)c3)c2)cc1O	Not fulfilled
CCCCCCCCCCCCCCCCCCS(=O)(=O)Nc1cc(C(=O)Nc2ccccc2)ccc1OC	Not fulfilled
COc1ccc(C(=O)Nc2ccccc2)cc1NC(=S)Nc1ccc(S(N)(=O)=O)cc1	Fulfilled
COC(=O)c1ccc(CNc2cc(C(=O)Nc3ccccc3)ccc2OC)cc1	Not fulfilled
CCCCCCCCCCCCS(=O)(=O)Nc1cc(C(=O)Nc2ccccc2)ccc1OC	Fulfilled
COc1ccc(C(=O)Nc2ccccc2)cc1NCc1cccs1	Not fulfilled
O=C(Nc1ccc(F)cc1)c1ccc(OC(F)(F)F)c(NC(=S)Nc2cccc(C(F)(F)F)c2)c1	Not fulfilled
COc1ccc(C(=O)Nc2ccccc2)cc1NCc1ccc(OC(C)=O)cc1	Not fulfilled
COc1ccc(C(=O)Nc2ccc(F)cc2)cc1NC(=S)Nc1cc(Cl)cc(Cl)c1	Fulfilled
COc1ccccc1Nc1cc(C(=O)Nc2ccccc2)ccc1OC	Not fulfilled
COc1ccc(C(=O)Nc2ccccc2)cc1NCc1cc(C)cc(C)c1	Not fulfilled
COc1ccc(C(=O)Nc2ccccc2)cc1NS(=O)(=O)c1cccc2cccnc12	Not fulfilled
COc1ccc(C(=O)Nc2ccccc2)cc1NCc1cccc(C)c1	Not fulfilled
COc1ccc(C(=O)Nc2ccccc2)cc1Nc1cccc(C(F)(F)F)c1	Fulfilled
COc1ccc(C(=O)Nc2ccccc2)cc1NC(=S)Nc1cc(Cl)cc(Cl)c1	Fulfilled
COc1ccc(C(=O)Nc2ccccc2)cc1NS(=O)(=O)c1ccc2ccccc2c1	Not fulfilled
CSc1ccc(C(=O)Nc2ccccc2)cc1NC(=S)Nc1cc(Cl)cc(Cl)c1	Fulfilled
COc1ccc(NC(=O)Nc2ccccc2)cc1NC(=S)Nc1cc(Cl)cc(Cl)c1	Not fulfilled
COc1ccc(C(=O)Nc2ccccc2)cc1NS(=O)(=O)c1ccc(C(F)(F)F)cc1	Not fulfilled
COc1ccc(C(=O)Nc2ccc(F)cc2)cc1Nc1cccc(C(F)(F)F)c1	Fulfilled
COc1ccc(C(=O)Nc2ccccc2)cc1NS(=O)(=O)c1cc(Cl)sc1Cl	Not fulfilled
COc1ccc(C(=O)Nc2ccc(F)c(F)c2)cc1NCc1cccc(O)c1	Fulfilled
CSc1ccc(C(=O)Nc2ccccc2)cc1Nc1cccc(C(F)(F)F)c1	Not fulfilled
Cc1ccc(C(=O)Nc2ccccc2)cc1Nc1ccccc1	Not fulfilled
COc1ccc(CNc2cc(C(=O)Nc3ccccc3)ccc2OC)cc1	Not fulfilled
COc1ccc(C(=O)Nc2ccc(F)c(F)c2)cc1NS(=O)(=O)c1cc(Cl)cc(Cl)c1	Fulfilled
COc1ccc(C(=O)Nc2ccccc2)cc1NCc1cc(F)cc(F)c1	Not fulfilled
Cc1ccc(NC(=O)c2ccc(O)c(Nc3cc(Cl)cc(Cl)c3)c2)cc1	Not fulfilled

* * *

# System: Rabbits fed a 0.25% cholesterol, 3% peanut oil, 3% coconut oil diet
# PROTOCOL: In vivo tests: aortic atherosclerotic lesions in rabbits fed a cholesterol diet
# ASSAY_CONTEXT: 10 mg/kg as diet admix, 12 weeks
PARAMETER: Aortic Arch Lesion Extent (% Δ from Control)

MOLECULE	TARGET_OR_TEST_SYSTEM	RESULT
COc1ccc(C(=O)Nc2ccccc2)cc1NC(=S)Nc1ccc(C(=O)O)cc1 [Example 75]	Rabbits fed a 0.25% cholesterol, 3% peanut oil, 3% coconut oil diet	−49 % Δ from Control
COc1ccc(C(=O)Nc2ccccc2)cc1NC(=S)Nc1cc(Cl)cc(Cl)c1 [Example 60]	Rabbits fed a 0.25% cholesterol, 3% peanut oil, 3% coconut oil diet	+40 % Δ from Control
COc1ccc(C(=O)Nc2ccc(Cl)c(Cl)c2)cc1NS(C)(=O)=O [Example 119]	Rabbits fed a 0.25% cholesterol, 3% peanut oil, 3% coconut oil diet	+46 % Δ from Control
COc1ccc(C(=O)Nc2ccc(F)cc2)cc1NC(=S)Nc1cc(Cl)cc(Cl)c1 [Example 91]	Rabbits fed a 0.25% cholesterol, 3% peanut oil, 3% coconut oil diet	−12 % Δ from Control
COc1ccc(C(=O)Nc2ccc(F)cc2)cc1Nc1cccc(C(F)(F)F)c1 [Example 40]	Rabbits fed a 0.25% cholesterol, 3% peanut oil, 3% coconut oil diet	+35 % Δ from Control
COc1ccc(C(=O)Nc2ccc(Cl)c(Cl)c2)cc1N [Example 4]	Rabbits fed a 0.25% cholesterol, 3% peanut oil, 3% coconut oil diet	+20 % Δ from Control

* * *

# TARGET_OR_TEST_SYSTEM: rabbit reticulocyte 15-LO (Oryctolagus cuniculus)
# Construct: Fifteen-lipoxygenase was obtained from phenylhydrazine-treated rabbits and purified per the method of Rapoport; from tissue; host or cells: reticulocytes of phenylhydrazine-treated rabbits
# Sequence (P12530 1-663): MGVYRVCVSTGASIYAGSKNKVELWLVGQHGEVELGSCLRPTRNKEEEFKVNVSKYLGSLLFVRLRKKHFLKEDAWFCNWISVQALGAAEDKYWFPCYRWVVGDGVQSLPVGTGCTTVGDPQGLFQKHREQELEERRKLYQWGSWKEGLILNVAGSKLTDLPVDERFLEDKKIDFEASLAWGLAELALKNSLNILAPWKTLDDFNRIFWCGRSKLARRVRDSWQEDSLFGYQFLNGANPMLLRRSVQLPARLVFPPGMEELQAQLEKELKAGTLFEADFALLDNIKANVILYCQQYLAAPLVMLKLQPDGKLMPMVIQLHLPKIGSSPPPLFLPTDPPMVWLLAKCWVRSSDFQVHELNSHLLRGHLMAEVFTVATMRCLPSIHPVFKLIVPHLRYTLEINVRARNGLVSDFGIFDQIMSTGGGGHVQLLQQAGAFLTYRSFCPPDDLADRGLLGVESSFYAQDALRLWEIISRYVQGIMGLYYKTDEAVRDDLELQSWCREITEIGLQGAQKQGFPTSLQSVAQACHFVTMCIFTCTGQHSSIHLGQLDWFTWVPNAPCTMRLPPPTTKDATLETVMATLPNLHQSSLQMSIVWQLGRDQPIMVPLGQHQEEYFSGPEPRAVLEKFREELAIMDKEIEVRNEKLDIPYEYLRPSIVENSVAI
# PROTOCOL: Rabbit Reticulocyte 15-LO Assay (h15LO)
# Format: biochemical
# ASSAY_CONTEXT: Table 2; 2U rabbit reticulocyte 15-LO, 174 μM linoleic acid, 15 minutes at 4° C.

COMPOUND	TARGET_OR_TEST_SYSTEM	IC50
COc1ccc(NC(=O)c2ccc(Cl)c(Cl)c2)cc1NCc1cccs1 [Example 264]	rabbit reticulocyte 15-LO (Oryctolagus cuniculus)	37 nM
COc1ccc(C(=O)Nc2ccccc2)cc1NC(=S)Nc1ccc(N(C)C)cc1 [Example 93]	rabbit reticulocyte 15-LO (Oryctolagus cuniculus)	82 nM
O=C(Nc1ccccc1)c1ccc(F)c(NC(=S)Nc2cc(Cl)cc(Cl)c2)c1 [Example 96]	rabbit reticulocyte 15-LO (Oryctolagus cuniculus)	46 nM
COc1ccc(C(=O)Nc2ccccc2)cc1NS(=O)(=O)c1ccccc1Cl [Example 127]	rabbit reticulocyte 15-LO (Oryctolagus cuniculus)	167 nM
COc1ccc(C(=O)Nc2ccccc2)cc1NC(=S)Nc1ccccc1 [Example 62]	rabbit reticulocyte 15-LO (Oryctolagus cuniculus)	70 nM
COc1ccc(C(=O)Nc2ccccc2)cc1Nc1ccccc1 [Example 28]	rabbit reticulocyte 15-LO (Oryctolagus cuniculus)	39 nM
COc1ccc(C(=O)OCc2ccccc2)cc1NC(=S)Nc1cc(Cl)cc(Cl)c1 [Example 176]	rabbit reticulocyte 15-LO (Oryctolagus cuniculus)	800 nM
COc1ccc(C(=O)Nc2ccccc2)cc1Nc1cccc(C)c1 [Example 32]	rabbit reticulocyte 15-LO (Oryctolagus cuniculus)	23 nM
O=C(Nc1ccccc1)c1cccc(Nc2ccccc2)c1 [Example 25, 3-Phenylamino-N-phenyl-benzamide]	rabbit reticulocyte 15-LO (Oryctolagus cuniculus)	6430 nM

* * *

# TARGET_OR_TEST_SYSTEM: rabbit reticulocyte 15-LO (Oryctolagus cuniculus, UniProt P12530)
# Construct: Fifteen-lipoxygenase was obtained from phenylhydrazine-treated rabbits and purified per the method of Rapoport; from tissue; host or cells: reticulocytes of phenylhydrazine-treated rabbits
# Sequence (P12530 1-663): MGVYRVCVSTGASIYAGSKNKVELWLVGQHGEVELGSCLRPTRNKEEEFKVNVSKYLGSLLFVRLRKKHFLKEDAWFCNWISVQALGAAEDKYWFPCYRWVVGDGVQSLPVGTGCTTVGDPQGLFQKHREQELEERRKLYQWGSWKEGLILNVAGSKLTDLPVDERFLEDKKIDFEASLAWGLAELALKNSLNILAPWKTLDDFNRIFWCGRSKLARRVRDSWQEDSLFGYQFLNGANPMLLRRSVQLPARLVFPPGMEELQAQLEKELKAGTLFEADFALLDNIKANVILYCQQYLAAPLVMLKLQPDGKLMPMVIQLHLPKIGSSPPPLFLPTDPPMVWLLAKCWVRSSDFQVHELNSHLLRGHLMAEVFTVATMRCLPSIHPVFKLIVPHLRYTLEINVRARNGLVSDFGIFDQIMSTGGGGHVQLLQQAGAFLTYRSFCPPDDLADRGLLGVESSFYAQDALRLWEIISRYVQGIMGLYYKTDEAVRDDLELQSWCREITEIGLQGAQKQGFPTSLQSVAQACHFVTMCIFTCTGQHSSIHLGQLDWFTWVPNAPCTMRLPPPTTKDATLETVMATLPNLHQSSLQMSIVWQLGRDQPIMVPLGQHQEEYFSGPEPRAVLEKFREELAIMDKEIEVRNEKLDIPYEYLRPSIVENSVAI
# PROTOCOL: Rabbit Reticulocyte 15-LO Assay (h15LO)
# Format: biochemical
# ASSAY_CONTEXT: Table 2; concentration not given
# Method: Rabbit Reticulocyte 15-LO Assay (h15LO) The present 15-LO assay takes advantage of the ability of 15-LO to oxidize the fatty acid linoleic acid to the hydroperoxy fatty acid 13-(S)HPODE, resulting in the formation of a conjugated diene. The 15-LO inhibitors are incubated with 15-LO enzyme in the presence of linoleic acid substrate. […] 13-HPODE is quantitated by comparing peak areas of individual samples with those from a standard curve generated using authentic 13-HODE. […]
PARAMETER: h15LO, value given as bare % (%)

1. COc1ccc(C(=O)Nc2ccc(F)cc2)cc1NS(=O)(=O)c1cccc([N+](=O)[O-])c1 97.05
2. CCCCc1ccc(CNc2cc(C(=O)Nc3ccccc3)ccc2OC)cc1 58.44
3. COc1ccc(NC(=O)Nc2ccc(Cl)c(Cl)c2)cc1NC(=S)Nc1cc(C(F)(F)F)cc(C(F)(F)F)c1 53
